Give measured Stability (T1/2 (h)) for each item. Keep answers brief.
- TARGET OR TEST SYSTEM: HLA-B07.02 (Homo sapiens, UniProt P01889)
- Sequence (P01889 25-299 limits assumed): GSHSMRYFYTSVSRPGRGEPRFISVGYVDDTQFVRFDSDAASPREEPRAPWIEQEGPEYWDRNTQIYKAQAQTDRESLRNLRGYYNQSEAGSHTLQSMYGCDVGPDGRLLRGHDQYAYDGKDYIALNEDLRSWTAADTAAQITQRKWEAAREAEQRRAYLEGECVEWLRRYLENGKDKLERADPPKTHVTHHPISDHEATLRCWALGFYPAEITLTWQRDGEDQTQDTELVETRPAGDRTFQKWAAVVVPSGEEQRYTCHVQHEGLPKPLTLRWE
- Sequence (P61769 21-119 partner): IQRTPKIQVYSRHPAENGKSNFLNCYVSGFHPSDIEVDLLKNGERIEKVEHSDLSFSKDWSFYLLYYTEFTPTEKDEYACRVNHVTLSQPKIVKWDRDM
- EXPERIMENTAL DETAILS: Class I MHC peptide binding stability (pMHC-I dissociation, 125I-labeled light chain)
- Set-up: made in house; host or cells: E. coli
- COND: Allele B07.02
Where a SMILES comes first, the peptide text is derived from it.

GET /values?readout=Stability (T1/2 (h))&item= CC(C)C[C@H](N)C(=O)N1CCC[C@H]1C(=O)N[C@@H](CCCNC(=N)N)C(=O)N[C@@H](CCCCN)C(=O)N1CCC[C@H]1C(=O)N[C@H](C(=O)N[C@@H](CCCNC(=N)N)C(=O)N[C@@H](C)C(=O)N[C@@H](C)C(=O)N[C@H](C(=O)O)[C@@H](C)O)[C@@H](C)O (H-LPRKPTRAAT-OH; N-terminus and C-terminus assumed)
3.7 h

Any idea what Stability (T1/2 (h)) was measured for C[C@H](NC(=O)[C@H](CO)NC(=O)[C@H](C)NC(=O)[C@@H]1CCCN1C(=O)[C@H](C)NC(=O)[C@@H]1CCCN1C(=O)[C@H](CCCNC(=N)N)NC(=O)[C@@H]1CCCN1C(=O)[C@@H](N)Cc1c[nH]cn1)C(=O)O ?
4.9 h

Please report the recorded Stability (T1/2 (h)) for CC[C@H](C)[C@H](NC(=O)[C@H](Cc1ccccc1)NC(=O)[C@H](CCCNC(=N)N)NC(=O)[C@@H]1CCCN1C(=O)[C@H](CC(C)C)NC(=O)[C@@H](N)CO)C(=O)N[C@@H](CC(C)C)C(=O)N[C@@H](CCSC)C(=O)N[C@@H](CCC(=O)O)C(=O)N[C@@H](CC(C)C)C(=O)O .
0.4 h

For CC(C)C[C@H](N)C(=O)N1CCC[C@H]1C(=O)N[C@@H](CCCNC(=N)N)C(=O)N[C@@H](CCCCN)C(=O)N1CCC[C@H]1C(=O)N[C@H](C(=O)N[C@@H](CCCNC(=N)N)C(=O)N[C@@H](C)C(=O)N[C@@H](C)C(=O)O)[C@@H](C)O , what is its reported Stability (T1/2 (h))?
5.5 h

Data request, read-out Stability (T1/2 (h)), for CC(C)C[C@H](NC(=O)[C@H](C)NC(=O)[C@@H](NC(=O)[C@H](CCCNC(=N)N)NC(=O)[C@H](CO)NC(=O)[C@H](CC(=O)O)NC(=O)[C@H](CO)NC(=O)[C@H](CC(C)C)NC(=O)[C@@H](N)CCCCN)[C@@H](C)O)C(=O)O
6.8 h

Which Stability (T1/2 (h)) reading was recorded for the molecule CC(C)[C@H](NC(=O)[C@H](CO)NC(=O)[C@@H](NC(=O)[C@@H](NC(=O)[C@H](C)NC(=O)[C@H](C)NC(=O)[C@H](CCCNC(=N)N)NC(=O)[C@@H](NC(=O)[C@@H]1CCCN1C(=O)[C@@H](N)CCCCN)[C@@H](C)O)[C@@H](C)O)C(C)C)C(=O)O (H-KPTRAATVSV-OH; N-terminus and C-terminus assumed) ?
3 h

Stability (T1/2 (h)) lookup needed for CSCC[C@H](NC(=O)[C@H](Cc1c[nH]c2ccccc12)NC(=O)[C@H](Cc1c[nH]cn1)NC(=O)[C@H](CC(N)=O)NC(=O)[C@H](CCCNC(=N)N)NC(=O)[C@H](CCCNC(=N)N)NC(=O)[C@H](CCC(N)=O)NC(=O)[C@H](CO)NC(=O)[C@@H]1CCCN1C(=O)[C@@H](N)CC(C)C)C(=O)O , thanks.
6.5 h

# query: Stability (T1/2 (h)) of entry CC[C@H](C)[C@H](NC(=O)[C@H](CCCCN)NC(=O)[C@H](C)NC(=O)[C@@H](NC(=O)[C@@H](N)CCCNC(=N)N)C(C)C)C(=O)N[C@@H](C)C(=O)N[C@@H](CC(=O)O)C(=O)N[C@@H](Cc1ccccc1)C(=O)NCC(=O)N[C@@H](CCSC)C(=O)O (H-RVAKIADFGM-OH; N-terminus and C-terminus assumed)
0.2 h

# get_value(readout='Stability (T1/2 (h))', item= CSCC[C@H](NC(=O)[C@H](CC(C)C)NC(=O)[C@@H](N)CCCCN)C(=O)N[C@@H](CC(C)C)C(=O)N[C@@H](CC(C)C)C(=O)N[C@@H](CCCNC(=N)N)C(=O)N[C@@H](CC(C)C)C(=O)N[C@@H](CC(N)=O)C(=O)N[C@@H](CC(C)C)C(=O)O )
1.5 h
